- Test system: LC-2-ad
- Procedure Summary: cells
- Assay type: functional, cell-based, Homo sapiens
- Condition Set: lc-2-ad
- Description: SANGER: Inhibition of human LC-2-ad cell growth in a cell viability assay.
Endpoint: IC50

Query: Request - read-out IC50 | tested on LC-2-ad | compound Cc1cc([C@@H](C)Nc2ccccc2C(=O)O)c2nc(N3CCOCC3)cc(=O)n2c1 [AZD-6482];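 further: growth inhibition of human LC-2-ad cells, read out with a cell viability assay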
Reply: > 5.12 µM

###

- System: ES4;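 further: growth inhibition of human ES4 cells, read out by a cell viability assay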
- Procedure Summary: cells
- Type: functional, cell-based, Homo sapiens
- Condition Set: Homo sapiens, ES4
- Description: SANGER: Inhibition of human ES4 cell growth in a cell viability assay.
Endpoint: pIC50
pIC50 here: minus log base 10 of the concentration, concentration in moles per litre.

INSERT INTO assay_data (structure_smiles, endpoint_value) VALUES
  ('Cn1cncc1[C@@](N)(c1ccc(Cl)cc1)c1ccc2c(c1)c(-c1cccc(Cl)c1)cc(=O)n2C', 5.89);

Query: What pIC50 appears in the records for this molecule with ES4? CCC(=O)N1CCN(c2ccc(-n3c(=O)ccc4cnc5ccc(-c6cnc7ccccc7c6)cc5c43)cc2C(F)(F)F)CC1
Reply: 7.08

###

- Test system: SK-N-DZ;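 further: growth inhibition of the cancer cell line, read out through a viability assay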
- Procedure Summary: cells
- Type: functional, cell-based, Homo sapiens
- Condition Set: Homo sapiens, SK-N-DZ
- Description: SANGER: Inhibition of human SK-N-DZ cell growth in a cell viability assay.
pIC50: −log10 of the molar value.
Endpoint: pIC50

Query: Fill in the blank: the reported pIC50 of O=C(c1cc(Cc2n[nH]c(=O)c3ccccc23)ccc1F)N1CCN(C(=O)C2CC2)CC1 is ____.
Reply: < 5.30

###

- Test system: ACN
- Procedure Summary: cells
- Assay type: functional, cell-based, Homo sapiens
- Condition Set: acn
- Description: SANGER: Inhibition of human ACN cell growth in a cell viability assay.
Endpoint: IC50

Query: Could you share what IC50 was measured for Cc1cc([C@@H](C)Nc2ccccc2C(=O)O)c2nc(N3CCOCC3)cc(=O)n2c1 , tested on ACN?;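 further: growth inhibition of the human ACN cell line, read out via cell viability testing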
Reply: > 5.12 µM

###

- Test system: CHP-212
- Procedure Summary: cells
- Type: functional, cell-based, Homo sapiens
- Condition Set: Homo sapiens, CHP-212
- Description: SANGER: Inhibition of human CHP-212 cell growth in a cell viability assay.
Endpoint: IC50

These recorded examples may help you get a feel for the data.
INSERT INTO results (compound, endpoint_value) VALUES
  ('COc1ccc(C2=N[C@@H](c3ccc(Cl)cc3)[C@@H](c3ccc(Cl)cc3)N2C(=O)N2CCNC(=O)C2)c(OC(C)C)c1 [NUTLIN-3]', '1.81 µM'),
  ('CN(Cc1cnc2nc(N)nc(N)c2n1)c1ccc(C(=O)N[C@@H](CCC(=O)O)C(=O)O)cc1 [METHOTREXATE]', '> 0.2 µM'),
  ('O=C(c1cc(Cc2n[nH]c(=O)c3ccccc23)ccc1F)N1CCN(C(=O)C2CC2)CC1 [OLAPARIB]', '> 5 µM');

Query: Quick check: IC50 on CHP-212, item CC(=O)O[C@@H]1[C@@H](OC(C)=O)[C@@H](O)[C@H](Oc2c(-c3ccc(O)cc3)oc3cc(O)cc(O)c3c2=O)O[C@H]1C ?
Reply: > 10 µM

Query: Report IC50 for CN(C)C/C=C/C(=O)Nc1cc2c(Nc3ccc(F)c(Cl)c3)ncnc2cc1O[C@H]1CCOC1 [AFATINIB] tested on CHP-212.
Reply: > 0.5 µM

Query: CHP-212 / IC50 / CN(c1ncccc1CNc1nc(Nc2ccc3c(c2)CC(=O)N3)ncc1C(F)(F)F)S(C)(=O)=O [PF-00562271] : value?
Reply: 2.1 µM
